target: NLRP3 inflammasome (Homo sapiens); test: NLRP3 inflammasome activation in THP1 macrophages, IL-1β AlphaLISA; conditions: IL-1β Activity (nM), THP1 macrophages, PMA, LPS priming, nigericin 6.7 uM activation
Sequence (Q96P20 whole entry): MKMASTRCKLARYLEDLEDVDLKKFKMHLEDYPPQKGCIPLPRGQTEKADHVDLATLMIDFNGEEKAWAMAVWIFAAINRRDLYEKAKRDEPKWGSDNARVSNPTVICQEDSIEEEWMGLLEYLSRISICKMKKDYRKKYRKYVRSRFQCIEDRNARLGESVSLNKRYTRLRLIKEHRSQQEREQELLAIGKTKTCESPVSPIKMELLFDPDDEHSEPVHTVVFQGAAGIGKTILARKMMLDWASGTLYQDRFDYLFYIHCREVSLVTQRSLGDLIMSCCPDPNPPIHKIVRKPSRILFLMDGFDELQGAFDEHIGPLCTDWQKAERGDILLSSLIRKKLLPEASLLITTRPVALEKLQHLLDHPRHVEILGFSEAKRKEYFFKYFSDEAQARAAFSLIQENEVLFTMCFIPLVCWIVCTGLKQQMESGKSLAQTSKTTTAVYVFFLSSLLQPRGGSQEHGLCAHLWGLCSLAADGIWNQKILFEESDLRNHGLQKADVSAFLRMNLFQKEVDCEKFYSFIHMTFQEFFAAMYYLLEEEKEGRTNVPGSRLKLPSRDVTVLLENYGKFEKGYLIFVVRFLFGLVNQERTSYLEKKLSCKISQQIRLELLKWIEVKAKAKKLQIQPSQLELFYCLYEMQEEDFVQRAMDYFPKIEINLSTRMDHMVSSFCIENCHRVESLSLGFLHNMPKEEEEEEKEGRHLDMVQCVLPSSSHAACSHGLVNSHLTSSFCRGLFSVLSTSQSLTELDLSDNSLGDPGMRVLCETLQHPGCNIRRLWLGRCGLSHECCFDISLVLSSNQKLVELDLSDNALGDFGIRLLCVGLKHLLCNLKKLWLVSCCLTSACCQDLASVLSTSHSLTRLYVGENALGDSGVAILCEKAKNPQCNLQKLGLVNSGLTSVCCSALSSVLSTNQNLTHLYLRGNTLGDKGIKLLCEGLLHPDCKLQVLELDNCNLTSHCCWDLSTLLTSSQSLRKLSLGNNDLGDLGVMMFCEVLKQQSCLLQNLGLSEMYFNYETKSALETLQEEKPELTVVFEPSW

{"compound": "Cc1cc(N(C)[C@@H]2CCCN(C)C2)nnc1-c1ccc(F)c(C)c1O [compound 64]", "assay_system": "NLRP3 inflammasome (Homo sapiens)", "IC50": "1 to 10 nM"}
{"compound": "CCc1cc(C)c(-c2ccc(N[C@@H]3CCCN(C)C3)nn2)c(O)c1 [compound 12]", "assay_system": "NLRP3 inflammasome (Homo sapiens)", "IC50": "< 1 nM"}
{"compound": "Cc1cc(N[C@@H]2CCCN(C)C2)nnc1-c1ccc(C(=O)O)cc1O [compound 92]", "assay_system": "NLRP3 inflammasome (Homo sapiens)", "IC50": "10 to 100 nM"}
{"compound": "CN1CCC[C@@H](Nc2cc(F)c(-c3ccccc3O)nn2)C1 [compound 52]", "assay_system": "NLRP3 inflammasome (Homo sapiens)", "IC50": "1 to 10 nM"}
{"compound": "Cc1cc(-c2c(C)cccc2O)nnc1N[C@@H]1CCCN(C)C1 [compound 78]", "assay_system": "NLRP3 inflammasome (Homo sapiens)", "IC50": "1 to 10 nM"}
{"compound": "Cc1cc(N[C@@H]2CC[C@@H](C(=O)O)NC2)nnc1-c1ccccc1O [compound 94]", "assay_system": "NLRP3 inflammasome (Homo sapiens)", "IC50": "> 1000 nM"}
{"compound": "Cc1cc(N[C@@H]2C[C@H](F)CN(C)C2)nnc1-c1ccccc1O [compound 42]", "assay_system": "NLRP3 inflammasome (Homo sapiens)", "IC50": "10 to 100 nM"}
{"compound": "Cc1cc(N[C@@H]2C[C@H](F)CN(C)C2)nnc1-c1ccc(F)cc1O [compound 47]", "assay_system": "NLRP3 inflammasome (Homo sapiens)", "IC50": "10 to 100 nM"}
{"compound": "Cc1cc(N[C@@H]2CCCN(C)C2)nnc1-c1ccc(C#N)cc1O [compound 51]", "assay_system": "NLRP3 inflammasome (Homo sapiens)", "IC50": "< 1 nM"}
{"compound": "Cc1cccc(-c2ccc(N(C)[C@@H]3CCCN(C)C3)nn2)c1O [compound 18]", "assay_system": "NLRP3 inflammasome (Homo sapiens)", "IC50": "> 1000 nM"}
{"compound": "Cc1cccc(O)c1-c1ccc(N[C@@H]2CCCN(C)C2)nn1 [compound 7]", "assay_system": "NLRP3 inflammasome (Homo sapiens)", "IC50": "1 to 10 nM"}
{"compound": "Cc1ccc(O)c(-c2nnc(N[C@@H]3CCCN(C)C3)cc2C)c1 [compound 68]", "assay_system": "NLRP3 inflammasome (Homo sapiens)", "IC50": "10 to 100 nM"}
{"compound": "Cc1cccc(O)c1-c1ccc(N(C)[C@@H]2CCCN(C)C2)nn1 [compound 21]", "assay_system": "NLRP3 inflammasome (Homo sapiens)", "IC50": "10 to 100 nM"}
{"compound": "Cc1cc(N[C@H]2CN(C)CC[C@H]2F)nnc1-c1ccccc1O [compound 50]", "assay_system": "NLRP3 inflammasome (Homo sapiens)", "IC50": "10 to 100 nM"}
{"compound": "Cc1cc(N[C@@H]2CCCN(C(C)C)C2)nnc1-c1ccc(F)cc1O [compound 59]", "assay_system": "NLRP3 inflammasome (Homo sapiens)", "IC50": "< 1 nM"}
{"compound": "Cc1cc(N[C@H]2CN(C)CC(F)(F)C2)nnc1-c1ccc(F)cc1O [compound 45]", "assay_system": "NLRP3 inflammasome (Homo sapiens)", "IC50": "100 to 500 nM"}
{"compound": "Cc1cc(-c2ccc(N(C)[C@@H]3CCCN(C)C3)nn2)c(O)cc1F [compound 25]", "assay_system": "NLRP3 inflammasome (Homo sapiens)", "IC50": "> 1000 nM"}
{"compound": "Cc1cc(N[C@@H]2CC[C@@H](C(=O)O)N(C)C2)nnc1-c1ccccc1O [compound 95]", "assay_system": "NLRP3 inflammasome (Homo sapiens)", "IC50": "> 1000 nM"}

----------
system: IL-6; experiment: IL-6 AlphaLISA in LPS-primed THP1 macrophages; conditions: Homo sapiens, THP-1, read-out: IL-6 Activity (μM), THP1 macrophages, PMA, LPS priming, nigericin 6.7 uM
Items are presented alongside their recorded IC50.
quantity_measured: IC50

{"compound_structure_string": "Cc1cc(N[C@@H]2C[C@H](F)CN(C)C2)nnc1-c1ccccc1O", "assay_system": "IL-6", "result": "> 10 µM"}
{"compound_structure_string": "Cc1cccc(O)c1-c1ccc(N(C)[C@@H]2CCCN(C)C2)nn1", "assay_system": "IL-6", "result": "5 to 10 µM"}
{"compound_structure_string": "Cc1cc(N(C)[C@@H]2CCCN(C)C2)nnc1-c1ccc(F)c(C)c1O", "assay_system": "IL-6", "result": "> 10 µM"}
{"compound_structure_string": "Cc1ccc(-c2cc(C)c(N[C@@H]3CCCN(C)C3)nn2)c(O)c1", "assay_system": "IL-6", "result": "< 1 µM"}
{"compound_structure_string": "Cc1cc(N[C@@H]2CCCN(C)C2)nnc1-c1c(C)cc(F)cc1O", "assay_system": "IL-6", "result": "> 10 µM"}
{"compound_structure_string": "Cc1cc(-c2ccc(C#N)cc2O)nnc1N[C@@H]1CCCN(C)C1", "assay_system": "IL-6", "result": "> 10 µM"}
{"compound_structure_string": "Cc1cc(F)cc(O)c1-c1ccc(N(C)[C@@H]2CCCN(C)C2)nn1", "assay_system": "IL-6", "result": "> 10 µM"}
{"compound_structure_string": "Cc1cc(N[C@H]2CN(C)CC[C@H]2F)nnc1-c1ccccc1O", "assay_system": "IL-6", "result": "> 10 µM"}
{"compound_structure_string": "Cc1cc(-c2ccc(C(=O)O)cc2O)nnc1N[C@@H]1CCCN(C)C1", "assay_system": "IL-6", "result": "> 10 µM"}
{"compound_structure_string": "Cc1cc(N[C@H]2CN(C)CC[C@@H]2F)nnc1-c1ccc(F)cc1O", "assay_system": "IL-6", "result": "> 10 µM"}
{"compound_structure_string": "Cc1cc(N(C)[C@@H]2CCCN(C)C2)nnc1-c1ccc(C#N)cc1O", "assay_system": "IL-6", "result": "> 10 µM"}
{"compound_structure_string": "Cc1cc(N[C@@H]2CCCN(C(C)C)C2)nnc1-c1ccc(F)cc1O", "assay_system": "IL-6", "result": "5 to 10 µM"}
{"compound_structure_string": "Cc1cccc(O)c1-c1ccc(N[C@@H]2CCCN(C)C2)nn1", "assay_system": "IL-6", "result": "1 to 5 µM"}
{"compound_structure_string": "Cc1cc(-c2ccccc2O)nnc1N[C@@H]1CCCN(C)C1", "assay_system": "IL-6", "result": "> 10 µM"}
{"compound_structure_string": "CN1CCC[C@@H](Nc2cc(F)c(-c3ccccc3O)nn2)C1", "assay_system": "IL-6", "result": "> 10 µM"}
{"compound_structure_string": "Cc1cc(N[C@H]2CN(C)CC(F)(F)C2)nnc1-c1ccccc1O", "assay_system": "IL-6", "result": "> 10 µM"}
{"compound_structure_string": "Cc1cc(-c2ccc(C(F)(F)F)cc2O)nnc1N[C@@H]1CCCN(C)C1", "assay_system": "IL-6", "result": "> 10 µM"}
{"compound_structure_string": "Cc1ccc(O)c(-c2ccc(N[C@@H]3CCCN(C)C3)nn2)c1", "assay_system": "IL-6", "result": "> 10 µM"}
{"compound_structure_string": "Cc1cc(N(C)[C@@H]2CCCN(C)C2)nnc1-c1ccccc1O", "assay_system": "IL-6", "result": "> 10 µM"}
{"compound_structure_string": "Cc1cccc(-c2ccc(N[C@@H]3CCCN(C)C3)nn2)c1O", "assay_system": "IL-6", "result": "> 10 µM"}
{"compound_structure_string": "Cc1cc(N[C@@H]2C[C@H](F)CN(C)C2)nnc1-c1ccc(F)cc1O", "assay_system": "IL-6", "result": "> 10 µM"}

----------
test system: IL-6; assay: IL-6 AlphaLISA in LPS-primed THP1 macrophages; conditions: Homo sapiens, THP-1, read-out: IL-6 Activity (μM), THP1 macrophages, PMA, LPS priming, nigericin 6.7 uM

{"compound": "Cc1cc(N[C@@H]2CCCN(C(C)C)C2)nnc1-c1ccccc1O [compound 57]", "assay_system": "IL-6", "IC50": "5 to 10 µM"}
{"compound": "Cc1c(F)ccc(-c2ccc(N[C@@H]3CCCN(C)C3)nn2)c1O [compound 10]", "assay_system": "IL-6", "IC50": "5 to 10 µM"}
{"compound": "CN1CCC[C@@H](N(C)c2ccc(-c3ccccc3O)nn2)C1 [compound 17]", "assay_system": "IL-6", "IC50": "> 10 µM"}
{"compound": "Cc1cc(-c2ccc(N(C)[C@@H]3CCCN(C)C3)nn2)c(O)cc1F [compound 25]", "assay_system": "IL-6", "IC50": "1 to 5 µM"}
{"compound": "CCN1CCC[C@@H](Nc2cc(C)c(-c3ccccc3O)nn2)C1 [compound 56]", "assay_system": "IL-6", "IC50": "> 10 µM"}
{"compound": "Cc1cc(N[C@H]2CN(C)CC(F)(F)C2)nnc1-c1ccc(F)cc1O [compound 45]", "assay_system": "IL-6", "IC50": "> 10 µM"}
{"compound": "Cc1cc(N[C@@H]2CCCN(C)C2)nnc1-c1ccccc1O [compound 2]", "assay_system": "IL-6", "IC50": "5 to 10 µM"}
{"compound": "Cc1cc(N[C@@H]2CCCN(C)C2)nnc1-c1ccc(C(=O)O)cc1O [compound 92]", "assay_system": "IL-6", "IC50": "> 10 µM"}
{"compound": "Cc1cc(-c2nnc(N[C@@H]3CCCN(C)C3)cc2C)c(O)cc1C(F)(F)F [compound 76]", "assay_system": "IL-6", "IC50": "5 to 10 µM"}
